Values from patent US20080311122A1

# assayInfo: Differential scanning calorimetry
# Type: physicochemical
# Set-up: unit: °C
# assayContext: in °C (unit assumed)
measuredQuantity: Tm
# print the numeric value only

Problem: # input molecule: G35: human anti-HMG1 antibody; VL/VH aa SEQ ID NO: 54/56 (antibody, listed as Homo sapiens, V domains shown) VH: EVQLLESGGGLVQPGGSLRLSCAASGFTFSWYKMVWVRQAPGKGLEWVSSIVPSGGITIYADSVKGRFTISRDNSKNTLYLQMNSLRAEDTAVYYCARVQQWLGRPYFDYWGQGTLVTVSS VL: AQDIQMTQSPLSLPVTPGEPASISCRSSQSLLHGNGYNYLDWYLQRPGQSPQLLIYSGSNRASGVPDRFSGSGSGTDFTLKISRVEAEDVGVYYCMQSLQSRTFGQGTKVEIK ; wanted: its Tm
Solution: 69
